Tested on: Abutilon theophrasti (ABUTH)
Experiment: Post-emergence herbicidal action, greenhouse pot trial
Assay type: in vivo
Details: Abutilon theophrasti, 504 h, 320 g/ha, visual rating after about 3 weeks, read-out: Post-emergence effect at 320 g/ha against ABUTH in %
Procedure: Seeds of monocotyledonous and dicotyledonous weeds and crop plants are placed in sandy loam in plastic or organic planting pots, covered with soil and cultivated in a greenhouse under controlled growth conditions. 2 to 3 weeks after sowing, the trial plants are treated at the one-leaf stage. […]
Measurement Type: pest or weed control at 320 g/ha (%)

>>> observed("CCOC(=O)C(Oc1nn(-c2ncccc2F)c(-c2ccccc2)c1Br)SC (stereo not drawn)")
80
>>> observed("CSC(Oc1nn(-c2ncccc2F)c(-c2ccc(F)nc2)c1Br)C(=O)O (single isomer, unassigned) [Example I-24]")
80
>>> observed("CCOC(=O)C(Oc1nn(-c2ncccc2F)c(-c2ccc(F)nc2)c1C(F)(F)F)SC (stereo not drawn)")
80

Source listed as patent US20250026724A1.
